TARGET_OR_SYSTEM: Carbonic anhydrase 2 (Homo sapiens)
RECORDED_METRIC: pIC50
Answers are plain numbers, as −log10 of the molar value.

Look up pIC50: NS(=O)(=O)c1ccc(C(=O)N2C[C@H]3CN(C(=O)/C=C/c4ccc(OC(F)(F)F)cc4)C[C@]3(F)C2)c(F)c1 (relative stereo)
8.22

Recorded values, source ChEMBL document CHEMBL5727886.
